- Tested on: B cell receptor-mediated activation of B cells in human blood (CD69 expression)
- Assay Procedure: Inhibition of B cell activation in whole blood measured by CD69 expression
- Type: cell-based
- Measurement Parameters: anti-IgM stimulation, 20 h, 50% decrease of CD69-positive cells that are also CD20-positive
- Excerpt: Inhibition of B Cell Activation in Whole Blood Measured by CD69 Expression A procedure to test the ability of Btk inhibitors to suppress B cell receptor-mediated activation of B cells in human blood is as follows: […] Using appropriate excitation and emission wavelengths for the fluorophores used, data are acquired and percent positive cell values are obtained using Cell Quest Software. Results are initially analyzed by FACS analysis software (Flow Jo). […]
Measurement Type: IC50 (nM)

Exercise: Lab note: B cell receptor-mediated activation of B cells in human blood (CD69 expression) assay, enter IC50 for Cn1cc(-c2cccc(-n3ccc4cc(C5CC5)cc(F)c4c3=O)c2CO)cc(Nc2ccc(C(C)(C)O)cn2)c1=O [Example I-72] here
Key: 20

I. Cn1cc(-c2cccc(-n3ncc4cc(C(C)(C)C)cc(F)c4c3=O)c2CO)cc(Nc2ccc(S(C)(=O)=O)cn2)c1=O [Example I-18]
II. Cn1cc(-c2cccc(-n3ccc4cc(C5(C)CC5)cc(F)c4c3=O)c2CO)cc(Nc2ccc(S(C)(=O)=O)cn2)c1=O [Example I-61]
Exercise: Of I and II , which carries the smaller reported IC50 figure? Pick one and reply with its label.
Key: I
(I: 11 nM, II: 51 nM)

Source listed as patent US8299077B2.
